// provenance: paper PMC6264278

Target: CYP3A (Homo sapiens, UniProt P08684)
Construct: using pooled human liver microsomes; tissue BD Gentest Co. H161; host or cells: pooled human liver microsomes
Sequence (P08684 2-503): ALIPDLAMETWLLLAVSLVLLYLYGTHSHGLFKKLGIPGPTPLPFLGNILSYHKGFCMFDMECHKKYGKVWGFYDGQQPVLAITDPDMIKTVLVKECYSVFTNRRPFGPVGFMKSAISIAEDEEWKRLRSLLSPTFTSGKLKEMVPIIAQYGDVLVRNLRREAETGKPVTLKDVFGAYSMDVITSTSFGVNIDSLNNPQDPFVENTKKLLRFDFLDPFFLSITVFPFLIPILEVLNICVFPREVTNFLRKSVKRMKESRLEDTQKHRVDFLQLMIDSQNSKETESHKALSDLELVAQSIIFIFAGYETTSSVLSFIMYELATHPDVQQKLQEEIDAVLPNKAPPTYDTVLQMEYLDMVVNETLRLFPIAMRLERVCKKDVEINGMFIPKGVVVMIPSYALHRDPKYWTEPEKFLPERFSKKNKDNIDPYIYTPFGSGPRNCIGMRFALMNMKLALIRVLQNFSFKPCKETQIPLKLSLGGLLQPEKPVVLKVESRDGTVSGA
Test: CYP3A midazolam 1'-hydroxylation inhibition, cocktail assay in pooled human liver microsomes
Format: in vitro ADME
Details: pre-incubated 30 min with NADPH; 2.5 μM midazolam; mean ± SD, n = 3; read-out: IC50 with preincubation, CYP3A midazolam 1'-hydroxylation
assay-endpoint: IC50 (µM)
Give bare numbers, in µM.

Exercise: Fill in the blank: the reported IC50 of COc1cc2c(cc1OC)C1C(C)c3ccc(OC)c(OC)c3CN1CC2 (stereo not shown) is ____.
Key: 67.4
